System: recombinant rabies virus strain 1088 expressing gaussia luciferase (1088/GLuc)
Experiment: microbe, parasite or virus in culture
Type: cell-based
Conditions: Lyssavirus rabies, N2a, 72 h, read-out: RABV IC50 (concentration required to inhibit the relative light units by 50%)
quantity_name: pIC50
Please report pIC50 as the negative decimal logarithm of the molar concentration, giving only the number.

Problem: Notebook: pull reported pIC50 for recombinant rabies virus strain 1088 expressing gaussia luciferase (1088/GLuc), entry NC(=O)c1nc(F)c[nH]c1=O [Favipiravir]
Result: 4.42
